Give Ki for every item shown.
biological target: chimeric human H3 receptor (Homo sapiens, UniProt Q9Y5N1, E19D); construct: made in house; host or cells: Sf9 insect cells (baculovirus infection); P2 membrane preparation; experiment: Chimeric human H3 receptor GTP binding assay (agonist-stimulated GTP-gamma35S binding, Example 7); type: biochemical; settings: Table II "Ki", symbol "*": Ki in the assay of Example 7; read-out: Ki
Sequence (Q9Y5N1 with tags, fused parts or gaps E19D): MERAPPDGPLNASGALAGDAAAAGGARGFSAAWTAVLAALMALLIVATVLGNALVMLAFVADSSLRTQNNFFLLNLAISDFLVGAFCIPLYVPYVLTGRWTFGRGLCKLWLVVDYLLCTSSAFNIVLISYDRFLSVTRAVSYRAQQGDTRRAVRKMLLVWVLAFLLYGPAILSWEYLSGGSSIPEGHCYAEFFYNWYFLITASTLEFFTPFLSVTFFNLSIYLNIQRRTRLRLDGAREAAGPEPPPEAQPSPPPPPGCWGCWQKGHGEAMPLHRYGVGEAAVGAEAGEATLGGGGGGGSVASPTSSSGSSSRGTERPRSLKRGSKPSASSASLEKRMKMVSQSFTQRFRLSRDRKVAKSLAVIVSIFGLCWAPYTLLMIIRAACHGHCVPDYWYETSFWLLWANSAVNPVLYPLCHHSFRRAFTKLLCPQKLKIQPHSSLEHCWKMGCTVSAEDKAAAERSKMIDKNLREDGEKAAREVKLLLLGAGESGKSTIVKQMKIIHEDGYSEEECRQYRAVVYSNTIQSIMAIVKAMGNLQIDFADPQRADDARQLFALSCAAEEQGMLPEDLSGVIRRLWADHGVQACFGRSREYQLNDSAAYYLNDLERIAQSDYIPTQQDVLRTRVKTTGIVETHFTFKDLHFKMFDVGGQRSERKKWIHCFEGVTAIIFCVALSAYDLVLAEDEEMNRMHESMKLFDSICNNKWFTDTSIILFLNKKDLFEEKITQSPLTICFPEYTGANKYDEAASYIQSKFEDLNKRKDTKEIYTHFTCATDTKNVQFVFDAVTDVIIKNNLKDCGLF

Study these solved cases before continuing.
INSERT INTO assay_data (molecule, reading) VALUES
  ('CCC(C)N1CCN(C(=O)CN2CCN(c3ccc(C)cc3)CC2)CC1 (centres unmarked) [Compound 882]', '< 1000 nM'),
  ('COc1cccc(N2CCN(CC(=O)N3CCN(C4CCCCC4)CC3)CC2)c1 [Compound 820]', '< 1000 nM'),
  ('Cc1ccc(F)c(-c2cnc(N3CCN(CC(=O)N4CCN(C5CCC5)CC4)CC3)cn2)c1Cl [Compound 897]', '< 1000 nM');

Report Ki for each item below.
1. O=C(CN1CCN(c2cccc(-c3ccc(F)cc3)c2)CC1)N1CCN(C2CCC2)CC1 [Compound 773]
2. O=C(CN1CCN(c2cnc(-c3ccc(F)c(Cl)c3)cn2)CC1)N1CCN(C2CCC2)CC1 [Compound 899]
3. O=C(CN1CCN(c2ccccc2)CC1)N1CCN(C2CCCCC2)CC1 [Compound 805]
4. Cc1cc(-c2cnc(N3CCN(CC(=O)N4CCN(C5CCC5)CC4)CC3)cn2)ccc1F [Compound 923]
5. CCC(C)N1CCN(C(=O)CN2CCN(c3cccc(C)c3)CC2)CC1 (centres unmarked) [Compound 876]

Response given:
["< 1000 nM", "< 1000 nM", "< 1000 nM", "< 1000 nM", "< 1000 nM"]

====

biological target: chimeric human H3 receptor (Homo sapiens, UniProt Q9Y5N1, E19D); construct: made in house; host or cells: Sf9 insect cells (baculovirus infection); P2 membrane preparation; assay: Chimeric human H3 receptor screening GTP binding assay (inhibition of histamine-stimulated GTP-gamma35S binding, Example 8); type: biochemical; details: 1 h; Table II, "+" in the column headed Ki; assay of Example 8; read-out: percent inhibition of agonist-induced GTP-gammaS binding to H3
Assign inhibition at 4 µM to each entry below.

INSERT INTO measurements (compound, reading) VALUES
  ('O=C(/C=C/c1cccc(C(F)(F)F)c1)N1CCN(CC(=O)N2CCN(C3CCC3)CC2)CC1 [Compound 615]', '> 90%'),
  ('O=C(CN1CCN(C(=O)c2cncc(C#Cc3ccccc3)c2)CC1)N1CCN(C2CCC2)CC1 [Compound 634]', '> 90%'),
  ('COc1ccc(OC)c(C(=O)N2CCN(CC(=O)N3CCN(C4CCC4)CC3)CC2)c1 [Compound 686]', '> 90%'),
  ('O=C(CN1CCN(C(=O)c2cc(Cl)nc(Cl)c2)CC1)N1CCN(C2CCC2)CC1 [Compound 692]', '> 90%'),
  ('CCOc1ccc(C(=O)N2CCN(CC(=O)N3CCN(C4CCC4)CC3)CC2)cc1OCC [Compound 728]', '> 90%');

For each listed entry, give its inhibition at 4 µM.
1. O=C(CN1CCN(C(=O)c2ccc(-n3cccc3)nc2)CC1)N1CCN(C2CCC2)CC1 [Compound 635]
2. O=C(CN1CCN(C(=O)c2c(Cl)cccc2Cl)CC1)N1CCN(C2CCC2)CC1 [Compound 691]
3. O=C(CN1CCN(C(=O)c2ccc3ccccc3c2)CC1)N1CCN(C2CCC2)CC1 [Compound 716]
4. Cc1cc(C(=O)N2CCN(CC(=O)N3CCN(C4CCC4)CC3)CC2)c(C)o1 [Compound 688]

Response given:
> 90%
> 90%
> 90%
> 90%

====

I'd be grateful if you could share measured Ki for these entries.
molecular target: chimeric human H3 receptor (Homo sapiens, UniProt Q9Y5N1, E19D); construct: made in house; host or cells: Sf9 insect cells (baculovirus infection); P2 membrane preparation; assay: Chimeric human H3 receptor GTP binding assay (agonist-stimulated GTP-gamma35S binding, Example 7); assay type: biochemical; conditions: Table II "Ki", symbol "*": Ki in the assay of Example 7; read-out: Ki

Guide cases for Ki, answers given:
INSERT INTO results (compound, reading) VALUES
  ('COc1ccc(C(C)C)cc1-c1ccc(N2CCN(CC(=O)N3CCN(C4CCC4)CC3)CC2)cc1', '< 1000 nM'),
  ('CCC(C)N1CCN(C(=O)CN2CCN(c3ccc(Cl)c(C)c3)CC2)CC1 (stereo not drawn)', '< 1000 nM'),
  ('Cc1ccc(N2CCN(CC(=O)N3CCN(C4CCC4)CC3)CC2)cc1', '< 1000 nM'),
  ('CCCc1ccc(-c2cnc(N3CCN(CC(=O)N4CCN(C5CCC5)CC4)CC3)cn2)cc1', '< 1000 nM'),
  ('CCC(C)N1CCN(C(=O)CN2CCN(c3ccc(OC)c(OC)c3)CC2)CC1 (stereo not drawn)', '< 1000 nM'),
  ('O=C(CN1CCN(c2cnc(-c3cccc(Cl)c3)cn2)CC1)N1CCN(C2CCC2)CC1', '< 1000 nM'),
  ('O=C1CCc2cc(N3CCC(C(=O)OCC(=O)N4CCN(C5CCCC5)CC4)CC3)ccc21', '< 1000 nM'),
  ('CCC(C)N1CCN(C(=O)CN2CCN(c3cccc(C(F)(F)F)c3)CC2)CC1 (stereo not drawn)', '< 1000 nM'),
  ('CC(C)c1cccc(-c2cnc(N3CCN(CC(=O)N4CCN(C5CCC5)CC4)CC3)cn2)c1', '< 1000 nM'),
  ('CCC(C)N1CCN(C(=O)CN2CCN(c3cc(C)ccc3C)CC2)CC1 (stereo not drawn)', '< 1000 nM');

Record Ki per entry; entries follow.
1. CCC(C)N1CCN(C(=O)CN2CCN(c3cccc(F)c3)CC2)CC1 (stereo not drawn)
2. O=C1CCc2cc(N3CCN(C(=O)OCC(=O)N4CCN(C5CCCC5)CC4)CC3)ccc21
3. CCc1ccc(-c2cnc(N3CCN(CC(=O)N4CCN(C5CCC5)CC4)CC3)cn2)cc1
4. O=C(CN1CCN(C(=O)C2CCCO2)CC1)N1CCN(C2CCC2)CC1 (stereo not drawn)
5. CCC(C)N1CCN(C(=O)CN2CCN(c3cccc(OC)c3)CC2)CC1 (stereo not drawn)
6. CCC(C)N1CCN(C(=O)CN2CCN(c3ccc(Cl)c(Cl)c3)CC2)CC1 (stereo not drawn)
7. Cc1ccc(-c2cnc(N3CCN(CC(=O)N4CCN(C5CCC5)CC4)CC3)cn2)cc1
8. O=C(CN1CCN(c2cc(Cl)cc(Cl)c2)CC1)N1CCN(C2CCCC2)CC1

Response given:
1. < 1000 nM
2. < 1000 nM
3. < 1000 nM
4. < 1000 nM
5. < 1000 nM
6. < 1000 nM
7. < 1000 nM
8. < 1000 nM

====

target: chimeric human H3 receptor (Homo sapiens, UniProt Q9Y5N1, E19D); construct: made in house; host or cells: Sf9 insect cells (baculovirus infection); P2 membrane preparation; assay: Chimeric human H3 receptor GTP binding assay (agonist-stimulated GTP-gamma35S binding, Example 7); format: biochemical; conditions: Table II, "*" in Ki; assay of Example 7; read-out: Ki
Experimental Readout: Ki

A selection of reference data follows.
INSERT INTO results (compound, study_target, reading) VALUES
  ('O=C(CN1CCN(c2ccc(-c3ccc(F)cc3F)cc2)CC1)N1CCN(C2CCC2)CC1', 'chimeric human H3 receptor (Homo sapiens, UniProt Q9Y5N1, E19D)', '< 1 µM'),
  ('O=C(CN1CCN(c2ccc(-c3cccc(F)c3)cc2)CC1)N1CCN(C2CCC2)CC1', 'chimeric human H3 receptor (Homo sapiens, UniProt Q9Y5N1, E19D)', '< 1 µM');

Parameters: items (list). Returns: Ki for each item.
1. CSc1cccc(-c2ccc(N3CCN(CC(=O)N4CCN(C5CCC5)CC4)CC3)cc2)c1
2. O=C(CN1CCN(c2ccc(F)c(C(F)(F)F)c2)CC1)N1CCN(C2CCC2)CC1

Response given:
["< 1 µM", "< 1 µM"]

Give measured Ki for every item shown.
1. O=C(CN1CCN(c2ccc(-c3cccc(F)c3F)cc2)CC1)N1CCN(C2CCC2)CC1
2. COc1ccc(C)cc1-c1ccc(N2CCN(CC(=O)N3CCN(C4CCC4)CC3)CC2)cc1
3. Cc1cc(C)c(-c2ccc(N3CCN(CC(=O)N4CCN(C5CCC5)CC4)CC3)cc2)c(C)c1
4. O=C(CN1CCC(N2CCCC2)CC1)N1CCN(C2CCC2)CC1

Response given:
1. < 1 µM
2. < 1 µM
3. < 1 µM
4. < 1 µM

====

For each record, write down the corresponding pKi.
target: chimeric human H3 receptor (Homo sapiens, UniProt Q9Y5N1, E19D); construct: made in house; host or cells: Sf9 insect cells (baculovirus infection); P2 membrane preparation; assay: Chimeric human H3 receptor GTP binding assay (agonist-stimulated GTP-gamma35S binding, Example 7); type: biochemical; details: Table II, "*" in Ki; assay of Example 7; read-out: Ki
pKi: −log10 of the molar value.

INSERT INTO assay_data (compound, reading) VALUES
  ('Cc1ccc(-c2ccc(N3CCN(CC(=O)N4CCN(C5CCC5)CC4)CC3)cc2)cc1F [Compound 751]', '> 6.00'),
  ('O=C(CN1CCN(c2ccc(-c3cc(Cl)ccc3Cl)cc2)CC1)N1CCN(C2CCC2)CC1 [Compound 682]', '> 6.00'),
  ('CCCS(=O)(=O)c1ccc(N2CCN(CC(=O)N3CCN(C4CCC4)CC3)CC2)cc1 [Compound 602]', '> 6.00');

Here's the next entry for you.
The compound identified as O=C(CN1CCN(c2ccc(-c3cc(Cl)cc(Cl)c3)cc2)CC1)N1CCN(C2CCC2)CC1 [Compound 739] registered its pKi at > 6.00
